# Assayed Target: T1, hIL-18BP-hFc (human, UniProt O95998 31-194, limits assumed)
# T1 sequence (looked up): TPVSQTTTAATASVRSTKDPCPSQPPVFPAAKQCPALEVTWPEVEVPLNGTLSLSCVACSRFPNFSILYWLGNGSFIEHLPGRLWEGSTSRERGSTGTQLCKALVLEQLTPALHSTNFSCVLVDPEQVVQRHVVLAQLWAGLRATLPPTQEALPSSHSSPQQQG
# Assay Details: cell-based or functional assay
Reported Property: EC50 (nM) in the Presence of 1 µg/mL hIL-18BP-hFc, hIL-18 reporter assay
Numbers only, in nM.

Solved cases (2 shown):
* IL-18 variant polypeptide M38 (ligand) YFPKLSSKLSVIRNLNDQVLFIDQGNRPLFEDMTDSDCRDNAPRTIFIISMYKWSGARGMAVTISVKCEKISTLSCENKIISFKEMNPPDVIKDTKSDIIFFQISVPGHDNKMQFESSSYEGYFLACEKERDLFKLILKKEDELGDRSIMFTVQNED | 1.2
* IL-18 variant polypeptide LM4 (ligand) YFPKLKSKLSVIRNLNDQVLFIDQGNRPLFEDMTDSDCRDNAPRTIFIISMYKHSYSRGMAVTISVKCEKISTLSCENKIISFKEMNPPDNIKDTKSDIIFFQRSVPGHDNKMQFESSSYEGYFLACEKERDLFKLILKKEDELGDRSIMFTVQNED | 0.17

# input for lookup
Find the recorded EC50 (nM) in the Presence of 1 µg/mL hIL-18BP-hFc, hIL-18 reporter assay belonging to IL-18 variant polypeptide M18 (ligand) YFPKLRSKLSVIRNLNDQVLFIDQGNRPLFEDMTDSDCRDNAPRTIFIISMYKSSRRRGMAVTISVKCEKISTLSCENKIISFKEMNPPDGIKDTKSDIIFFQSSVPGHDNKMQFESSSYEGYFLACEKERDLFKLILKKEDELGDRSIMFTVQNED and report it.
0.56

Where do the numbers come from? From patent US20260092093A1.
